src = patent US20240025862A1

Tested on: Oryza sativa (ORYSA)
procedure_details: Post-emergence crop plant compatibility, greenhouse pot test (also comparative test C)
Assay type: in vivo
condition_details: 5 g/ha, vs untreated controls
Listing of recorded Post-emergence action against ORYSA (crop plant compatibility) by entry.
Value expressed in %; do not type the unit.

Guide cases for Post-emergence action against ORYSA (crop plant compatibility), answers given:
COCCOCCOC(=O)C(C)Oc1ccccc1Sc1cc(-n2c(=O)cc(C(F)(F)F)n(C)c2=O)c(F)cc1Cl (racemic) [I.2-23] = 10
CC(Oc1ccccc1Sc1cc(-n2c(=O)cc(C(F)(F)F)n(C)c2=O)c(F)cc1Cl)C(=O)OCC1CCCO1 (mixture of isomers) [I.2-71] = 20
Cn1c(C(F)(F)F)cc(=O)n(-c2cc(Sc3ccccc3OCC(=O)OCC3CCOC3)c(Cl)cc2F)c1=O (racemic) [I.1-72] = 20
COCCOC(=O)COc1ccccc1Sc1cc(-n2c(=O)cc(C(F)(F)F)n(C)c2=O)c(F)cc1Cl [I.1-1] = 10
CCOCCOC(=O)COc1ccccc1Oc1cc(-n2c(=O)cc(C(F)(F)F)n(C)c2=O)c(F)cc1Br [I.8-2] = 0

Input: In one line, give reported Post-emergence action against ORYSA (crop plant compatibility) of the entry CCOCCOC(=O)COc1ccccc1Oc1cc(-n2c(=O)cc(C(F)(F)F)n(C)c2=O)c(F)cc1[N+](=O)[O-] [I.6-2] .
Output: 0

Input: In one line, give reported Post-emergence action against ORYSA (crop plant compatibility) of the entry COCCOC(=O)COc1ccccc1Oc1cc(-n2c(=O)cc(C(F)(F)F)n(C)c2=O)c(F)cc1C#N [I.9-1] .
Output: 20

Input: In one line, give reported Post-emergence action against ORYSA (crop plant compatibility) of the entry Cn1c(C(F)(F)F)cc(=O)n(-c2cc(Oc3cc(F)ccc3OCC(=O)OCC#N)c(Cl)cc2F)c1=O [I.23-176] .
Output: 20

Input: In one line, give reported Post-emergence action against ORYSA (crop plant compatibility) of the entry CC(Oc1ccccc1Sc1cc(-n2c(=O)cc(C(F)(F)F)n(C)c2=O)c(F)cc1Cl)C(=O)OCCO (racemic) [I.2-58] .
Output: 10

Input: In one line, give reported Post-emergence action against ORYSA (crop plant compatibility) of the entry Cn1c(C(F)(F)F)cc(=O)n(-c2cc(Oc3ccccc3OCC(=O)OCCOC(F)(F)F)c([N+](=O)[O-])cc2F)c1=O [I.6-41] .
Output: 10

###

Tested on: Alopecurus myosuroides (ALOMY)
procedure_details: Post-emergence herbicidal action, greenhouse pot test (also comparative test C)
Assay type: in vivo
condition_details: 5 g/ha, rated visually after about 3 weeks vs untreated controls, 100% = plants have died
Method: Seeds of monocotyledonous and dicotyledonous weeds and crop plants were placed in sandy loam in plastic or wood-fiber pots, covered with soil and cultivated in a greenhouse under controlled growth conditions. 2 to 3 weeks after sowing, the test plants were treated at the one-leaf stage. […]
parameter: Post-emergence action at 5 g/ha against ALOMY in % (%)
Value expressed in %; do not type the unit.

COCCOC(=O)COc1ccccc1Oc1cc(-n2c(=O)cc(C(F)(F)F)n(C)c2=O)c(F)cc1Br = 100
Cn1c(C(F)(F)F)cc(=O)n(-c2cc(Oc3ccccc3OCC(=O)OCc3ccncc3)c(Cl)cc2F)c1=O = 90
Cn1c(C(F)(F)F)cc(=O)n(-c2cc(Oc3ccccc3OCC(=O)OCc3ccccn3)c(Br)cc2F)c1=O = 80

Now for a further molecule.
Input: In one line, give reported Post-emergence action at 5 g/ha against ALOMY in % of the entry Cn1c(C(F)(F)F)cc(=O)n(-c2cc(Oc3ccccc3OCC(=O)OCc3cccnn3)c(Cl)cc2F)c1=O .
Output: 80
